- systemName: Bile acid receptor (Homo sapiens, UniProt Q96RI1)
- Sequence (Q96RI1 whole entry): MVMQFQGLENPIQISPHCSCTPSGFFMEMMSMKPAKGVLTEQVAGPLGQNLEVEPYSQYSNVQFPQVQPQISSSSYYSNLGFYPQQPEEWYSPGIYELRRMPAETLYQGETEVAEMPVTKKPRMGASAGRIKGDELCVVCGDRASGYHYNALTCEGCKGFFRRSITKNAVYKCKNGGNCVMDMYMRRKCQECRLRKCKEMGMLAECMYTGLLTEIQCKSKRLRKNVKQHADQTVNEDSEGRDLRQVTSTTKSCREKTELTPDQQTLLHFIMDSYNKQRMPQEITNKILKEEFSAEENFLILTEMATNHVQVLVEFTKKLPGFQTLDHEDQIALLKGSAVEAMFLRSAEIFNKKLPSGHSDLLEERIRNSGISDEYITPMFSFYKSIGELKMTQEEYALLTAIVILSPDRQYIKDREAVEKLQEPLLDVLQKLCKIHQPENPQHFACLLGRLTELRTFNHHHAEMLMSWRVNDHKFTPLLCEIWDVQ
- assayOverview: Transactivation of human FXR expressed in human HeLa cells co-expressing BSEP after 24 hrs by dual-glo luciferase reporter gene assay
- Assay type: cell-based
- experimentalContext: read-out: EC50
Below, each entry is listed alongside its reported pEC50.
A value of pEC50 is the negative decimal logarithm of a concentration given in moles per litre.

The compound `Cc1ccc2nc(-c3ccc(Cl)cc3)c(NCc3ccccc3)n2c1` showed pEC50 equal to 6.62

The recorded pEC50 for entry `Cc1ccc2nc(-c3nc(C)cs3)c(NCc3ccccc3)n2c1` equals 6.66

The recorded pEC50 for entry `Cc1ccc2nc(-c3ccc(Cl)c(Cl)c3)c(NCc3ccccc3)n2c1` equals 7.62

Briefly, pEC50 measured for `Cc1ccc2nc(-c3cccs3)c(NCCCc3ccccc3)n2c1` : 6.64

What the record says about `Cc1ccc2nc(-c3ccccc3C)c(NCc3ccccc3)n2c1` : pEC50 is 6.59

More entries:
// field: pEC50; key: `COc1ccc(-c2nc3ccc(C)cn3c2NCc2ccccc2)cc1` ; value = 5.90

Entry under test: `Cc1ccc2nc(-c3ccc(F)cc3)c(NCc3ccccc3)n2c1` . Its pEC50 was 6.77

For record `Cc1ccc2nc(-c3cccnc3)c(NCc3ccccc3)n2c1` the listed pEC50 is 6.28

Item: `Cc1ccc2nc(-c3ccsc3)c(NCc3ccccc3)n2c1` | pEC50: 6.08

Measured pEC50, `Cc1ccc2nc(-c3cccn3C)c(NCc3ccccc3)n2c1` : 5.96

###

- systemName: Bile acid receptor (Homo sapiens)
- assayOverview: Transactivation of human FXR expressed in human HeLa cells co-expressing BSEP at 3 uM after 24 hrs by dual-glo luciferase reporter gene assay relative to GW4064
- Type: cell-based
Met means recorded max activation is 20% or above; Not met means it is below 20%.

The examples below pair each entry with its known result.
Task: # check: max activation of `Cc1ccc2nc(-c3cccs3)c(N[C@@H](C)c3ccccc3)n2c1` is greater than or equal to 20%
Result: Not met

Task: Check if max activation >= 20% (inclusive). Item: `Cc1ccc2nc(-c3cccs3)c(N[C@H](C)c3ccccc3)n2c1`
Result: Not met

Task: In plain terms: is recorded max activation at least 20% for `Cc1ccc2nc(-c3ccncc3)c(NCc3ccccc3)n2c1` ?
Result: Not met

Task: Decide: is the reported value of max activation for `Cc1ccc2nc(-c3ccoc3)c(NCc3ccccc3)n2c1` equal to or greater than 20%?
Result: Not met

Task: Answer whether max activation of `Cc1ccc2nc(-c3nc(C)cs3)c(NCc3ccccc3)n2c1` is greater than or equal to 20%.
Result: Not met

Task: Answer whether max activation of `Clc1ccc2nc(-c3cccs3)c(NCc3ccccc3)n2c1` is greater than or equal to 20%.
Result: Met

Turning now to a further compound:
Task: Hello, I need to know if `Cc1ccc2nc(-c3ccc(Cl)cn3)c(NCc3ccccc3)n2c1` has measured max activation not below 20%. Thanks!
Result: Met

###

- assayOverview: Metabolic stability in human HepG2 cells assessed as compound remaining after 24 hrs by HPLC analysis
- Assay type: ADME, cell-based
- experimentalContext: read-out: Stability
measurementName: remaining at 24 h
The answer should read as a number with its unit following.

What the record says about `COc1ccc(CNc2c(-c3cc(Cl)ccn3)nc3ccc(Cl)cn23)cc1` : remaining at 24 h is 12%
